These entries and their values trace back to patent US20250333523A1.

Molecular target: T1, Avi/His-HuIL18BPa (recombinant human IL-18BP isoform A with Avi and poly-His tags) (human, biotinylated with BirA on the Avi tag in some assays)
T1 construct: also called human IL-18BP-Avi-His
T1 chain: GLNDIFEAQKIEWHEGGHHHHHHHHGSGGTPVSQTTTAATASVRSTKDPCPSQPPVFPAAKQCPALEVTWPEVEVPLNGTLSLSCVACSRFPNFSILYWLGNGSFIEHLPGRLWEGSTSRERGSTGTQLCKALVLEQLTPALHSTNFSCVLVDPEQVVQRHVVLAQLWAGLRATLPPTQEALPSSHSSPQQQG
Test: ELISA, coated IL-18BP
Quantity Name: ELISA binding ratio (fold-change over background)

Field ELISA binding ratio (fold-change over background) (entry anti-IL18BP antibody BP-07 (antibody, human IgG1, V domains shown) VH: EVQLQQSGPELVKPGASVKISCRASGFTITDYNMDWVRQSHGKSLEWIGNINLNNGGSIYNQKFKGKATLTIDKSSSTAYMELRSLTSEDTAVYYCARSDTTVVASRYYAMDYWGQGTSVTVSS VL: DIVLTQSPASLAMSLGKRATISCRASESVSIIGTNLIHWYQQKPGQPPKLLIYHASNLETGVPVRFSGSGSRTDFTLTIDPVEEDDVAIYYCLQSRKIPPTFGGGTKLEIK ) reads 38.5 fold over background

Field ELISA binding ratio (fold-change over background) (entry anti-IL18BP antibody BP-16 (antibody, human IgG1, V domains shown) VH: QVQLVQSGAEVKKPGASVKVSCKASGYTFTTYDINWVRQAPGQGLEWMGIIGSYGGATSYAQKFQGRVTMTRDTSTSTVYMELSSLRSEDTAVYYCATAEEELRFDYWGQGTLVTVSS VL: DIQMTQSPSSLSASVGDRVTITCRASQSISSYLNWYQQKPGKAPKLLIYKASTLHNGVPSRFSGSGSGTDFTLTISNLQPEDFATYYCQQAISFPLTFGGGTKVEIK ) reads 23.6 fold over background
